src = PubChem BioAssay (NCI)

Exercise: for every item that follows, state its recorded TGI.
System: HS 578T breast
PROTOCOL_TEXT: NCI tumour cell line growth inhibition, 48 h
# value in µM; strip the unit string

[in] Fill in: TGI of `CCCCCCCCCCCCCCCCOC(=O)c1c(C)[nH]c(/C=C2\N=C(c3ccc[nH]3)C=C2OC)c1C` is ___
[out] 9.38

[in] Find the recorded TGI belonging to `CN(C)c1ccc(/C=C/c2ccnc3ccccc23)cc1N` and report it.
[out] 61.3

[in] Which TGI is reported for this compound? `O=C1/C(=C/c2ccc([N+](=O)[O-])o2)Oc2ccccc21`
[out] 21.4

[in] I have this compound here, CC1CC(C)/C(=N/NC(N)=O)C(C(O)CC2CCC(=O)NC2=O)C1 (stereo not given) , and I need its recorded TGI.
[out] 8.25

[in] I have this compound here, `CCCN1CN(c2ccccc2)C2(CCN(CCCC(=O)c3ccc(F)cc3)CC2)C1=O` , and I need its recorded TGI.
[out] 34.1

---

Test system: HCT-116 colon
PROTOCOL_TEXT: NCI tumour cell line growth inhibition, 48 h
Provide the recorded TGI for the entries that follow.
Report as a plain number; the unit µM is understood.

[in] # input compound: `COc1cc(C(=O)/C=C/c2c(-c3ccc(F)cc3)nc3ncccn23)cc(OC)c1OC` ; wanted: its TGI
[out] 4.45

[in] Field request: TGI | item: Nc1ccc(C(=O)NN2C(=O)C(Cl)C2c2ccc([N+](=O)[O-])cc2)cc1 (stereo not drawn)
[out] 4.31

[in] Requested field: TGI. Item: `Cc1cc(NS(=O)(=O)c2ccc(NC(=O)c3cccc4cc5ccccc5nc34)cc2)no1`
[out] 19.6

[in] What measured TGI goes with `Cc1ccc(S(=O)(=O)N/N=C/c2oc(-c3ccccc3Cl)c(-c3ccccc3Cl)c2[N+](=O)[O-])cc1` ?
[out] 46.6

[in] I am curious: what TGI value has been reported for `COC1=CC(=O)c2c(O)ccc(O)c2C1=O` ?
[out] 31.2

[in] Sample `CCOc1ccc(N=Nc2ccc3oc(=O)c(/C(C)=N\NC(=O)CC(=O)Nc4ccc(Cl)cc4)cc3c2)cc1` — what was its TGI?
[out] 31.5

[in] // query TGI value for entry `O=c1oc2ccc(F)cc2c(=O)n1-c1ccc(Cl)cc1F`
[out] 2.82

---

System: RPMI-8226 leukemia
PROTOCOL_TEXT: NCI tumour cell line growth inhibition, 48 h
Record form. Attribute: TGI. Fill in for each entry.

[in] # get_value(readout='TGI', item= `COc1ccc(Cn2cc3c(c2-c2ccc(O)cc2)CCc2cnoc2-3)cc1` )
[out] 6.36 µM

[in] Sample COc1ccc(N=Nc2c(C)c(C#N)c(=S)n(C3OC(COC(C)=O)C(OC(C)=O)C(OC(C)=O)C3OC(C)=O)c2-c2ccccc2)cc1 (centres undefined) — what was its TGI?
[out] > 100 µM

[in] Which TGI value is on record for `CN(C)CCCNC(=O)c1cc(NC(=O)c2cc(NC(=O)[C@H]3C[C@@H]3C(=O)Nc3cc(C(=O)Nc4cc(C(=O)NCCCN(C)C)n(C)c4)n(C)c3)cn2C)cn1C` ?
[out] > 100 µM

[in] What value of TGI has been recorded for this entry: `CCCC(=O)Nc1cc([N+](=O)[O-])c([N+](=O)[O-])cc1OC`
[out] 68.4 µM

[in] Field request: TGI | item: c1ccc2c(c1)CCN1CCc3c([nH]c4ccccc34)C21 (centres undefined)
[out] 55.1 µM

[in] Query: TGI; subject: C=CCC12CC(=O)C=C1CCC1(C2)OCCO1 (centres undefined)
[out] > 100 µM

[in] Look up TGI for this compound: `O=C1/C(=C/c2ccc([N+](=O)[O-])o2)Oc2ccccc21`
[out] 3.58 µM

[in] Field request: TGI | item: `O[C@@H]1CCCN1Cc1cc2cc3c(cc2c2cc(OCc4ccccc4)ccc12)OCO3`
[out] 4.63 µM

[in] Give its TGI value. Item: O=C(O)C(Cc1cnc[nH]1)N=Cc1nc(-c2ccccc2)oc1O (centres undefined)
[out] > 100 µM
